Hello, the source for this data is the supplement of paper PMC13380429, in case you need it.

Record form. Attribute: cell viability. Fill in for each entry.
System: HepG2
Experiment: cell viability relative to DMSO; higher = less toxic
Details: 72 h; 10000 nM
Give bare numbers, in %.

CCOC(=O)[C@@]1(CCCCCCOc2ccc(Cl)cc2)CO1 = 91.7
CCCc1ncc(C[n+]2ccccc2C)c(N)n1 = 92.1

Would you mind giving cell viability for every compound in the list below?
1. CC(C)C(=O)OC[C@@]1(N=[N+]=[N-])O[C@@H](n2ccc(N)nc2=O)[C@H](OC(=O)C(C)C)[C@@H]1OC(=O)C(C)C
2. CCC(=N\O)/C(C)=C/c1ccc(F)cc1
3. Cc1nnc(C(=O)NC(C)(C)c2nc(C(=O)NCc3ccc(F)cc3)c(O)c(=O)n2C)o1

Ans:
92.4
91
90.3
